Data origin: ChEMBL document CHEMBL2046321

- test_protocol: Cytotoxicity against human PBMC assessed as cell killing at IC50 after 48 hrs by MTT assay
- test_parameters: PBMC (peripheral blood mononuclear cells)
readout_type: cell killing at 48 h (%)
Just the number in %, nothing appended.

Example results:
smiles_string: O=C(c1cccs1)c1cc2c(ccc3ccccc32)oc1=S
readout_type: cell killing at 48 h
unit_of_measurement: %
reported_result: 28.8
--
smiles_string: O=C(c1ccco1)c1cc2c(ccc3ccccc32)oc1=S
readout_type: cell killing at 48 h
unit_of_measurement: %
reported_result: 12
--
smiles_string: COc1ccc(C(=O)c2cc3cc(Br)ccc3oc2=S)cc1
readout_type: cell killing at 48 h
unit_of_measurement: %
reported_result: 32.9
--
smiles_string: COc1cccc2cc(C(=O)c3cccs3)c(=S)oc12
readout_type: cell killing at 48 h
unit_of_measurement: %
reported_result: 11.1
--
smiles_string: COc1cccc2cc(C(=O)c3ccco3)c(=S)oc12
readout_type: cell killing at 48 h
unit_of_measurement: %
reported_result: 12.3
--
smiles_string: COc1ccc(C(=O)c2cc3c(ccc4ccccc43)oc2=S)cc1
readout_type: cell killing at 48 h
unit_of_measurement: %
reported_result: 15.1

Switching to the query record.
Recorded result, COc1cccc2cc(C(=O)c3ccc(C)cc3)c(=S)oc12 , cell killing at 48 h: 9.4

* * *

- test_protocol: Cytotoxicity against human PBMC assessed as cell killing at 2 times IC50 after 48 hrs by MTT assay
- test_parameters: PBMC (peripheral blood mononuclear cells)
// boundary case: cell killing at 48 h equal to 20% maps to n; strictly smaller maps to y

compound: C[C@@H]1[C@H](O)[C@@H](C)/C=C/C=C/C=C/C=C/C=C/C=C/C=C/[C@H](O[C@@H]2O[C@H](C)[C@@H](O)[C@H](N)[C@@H]2O)C[C@@H]2O[C@](O)(C[C@@H](O)C[C@@H](O)[C@H](O)CC[C@@H](O)C[C@@H](O)CC(=O)O[C@H]1C)C[C@H](O)[C@H]2C(=O)O [AMPHOTERICIN B]
group_label: n

Please indicate whether the reported cell killing at 48 h of O=C(c1ccco1)c1cc2c(ccc3ccccc32)oc1=S is strictly below 20%.
n

Please indicate whether the reported cell killing at 48 h of COc1ccc(C(=O)c2cc3c(ccc4ccccc43)oc2=S)cc1 is strictly below 20%.
n

Please indicate whether the reported cell killing at 48 h of O=C(c1cccs1)c1cc2cc(Br)ccc2oc1=S is strictly below 20%.
y

Please indicate whether the reported cell killing at 48 h of COc1cccc2cc(C(=O)c3ccc(C)cc3)c(=S)oc12 is strictly below 20%.
n

Please indicate whether the reported cell killing at 48 h of COc1ccc(C(=O)c2cc3cc(Br)ccc3oc2=S)cc1 is strictly below 20%.
n

Please indicate whether the reported cell killing at 48 h of O=C(c1cccs1)c1cc2c(ccc3ccccc32)oc1=S is strictly below 20%.
n

Please indicate whether the reported cell killing at 48 h of O=C(c1ccco1)c1cc2cc(Br)ccc2oc1=S is strictly below 20%.
y

Please indicate whether the reported cell killing at 48 h of COc1cccc2cc(C(=O)c3ccco3)c(=S)oc12 is strictly below 20%.
n

Please indicate whether the reported cell killing at 48 h of COc1ccc(C(=O)c2cc3cccc(OC)c3oc2=S)cc1 is strictly below 20%.
y
